Measured On: T1, His6-HOIL-UBL (human, UniProt Q9BYM8-1 37-137)
T1 sequence: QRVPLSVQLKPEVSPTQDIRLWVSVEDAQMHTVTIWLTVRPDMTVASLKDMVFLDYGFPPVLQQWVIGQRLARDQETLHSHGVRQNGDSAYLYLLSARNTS
Assay Comment: SPR
pKd: −log10 of the molar value. βAla = NCCC(=O)O
Observable: pKd

Binder	Number
{Ac-βAla}-SRALTELQRQRLEGFRQRLWDS-NH2 (peptide, UniProt Q96EP0 606-627, looked up) [P2G WT (5), unstapled HOIP peptide with proline-to-glycine substitution]	4.01

Measured values drawn from paper PMC5844832 for this set.
